Quick list: Fold decrease in affinity per entry.
# ASSAY SYSTEM: T1, human NMI (N-myc Interacting protein), recombinant protein (human, UniProt Q13287 1-307, limits assumed)
# T1 construct: Gene ID: 9111; also called hNMI; antigen
# T1 sequence (looked up): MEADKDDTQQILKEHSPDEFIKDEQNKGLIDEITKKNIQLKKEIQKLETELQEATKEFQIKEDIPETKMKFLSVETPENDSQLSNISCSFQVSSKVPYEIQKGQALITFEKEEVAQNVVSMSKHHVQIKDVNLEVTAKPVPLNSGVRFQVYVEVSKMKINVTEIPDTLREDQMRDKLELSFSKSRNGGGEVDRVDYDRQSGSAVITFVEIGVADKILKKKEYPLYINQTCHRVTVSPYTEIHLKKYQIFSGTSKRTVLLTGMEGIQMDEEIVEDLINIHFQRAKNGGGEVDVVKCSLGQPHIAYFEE
# PROTOCOL DETAILS: ELISA EC50 against parent 240B10-1

| BINDER | RESULT |
| --- | --- |
| 240B10-1 mutant S30A (VH) (antibody, V domains shown) VH: QSLEESGGRLVTPGGSLTLTCTVSGIDLSAYTMGWVRQAPGKGLEYIGIISGGGRTYYASWAKGRFTISKTSSTTVDLKVTSLTTEDTATYFCARIYTLWGQGTLVTVSS VL: QVLTQTLASVSAAVGGTVTINCQSSQSVYNNDYLAWFQQKSGQPPKQLIHSASKLASGVPSRFKGSGSGTQFTLTINDVQCDDAATYYCLGGYDCYSADCNVFGGGTEVVVK | > 500 fold |

Here's the next entry for you.
Exercise: Name the recorded Fold decrease in affinity of the binder listed here: 240B10-1 mutant S30E (VH) (antibody, V domains shown) VH: QSLEESGGRLVTPGGSLTLTCTVSGIDLSEYTMGWVRQAPGKGLEYIGIISGGGRTYYASWAKGRFTISKTSSTTVDLKVTSLTTEDTATYFCARIYTLWGQGTLVTVSS VL: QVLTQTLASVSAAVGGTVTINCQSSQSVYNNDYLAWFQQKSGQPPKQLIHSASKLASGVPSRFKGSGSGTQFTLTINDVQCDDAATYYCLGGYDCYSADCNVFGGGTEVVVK
Key: > 500 fold

The values you see were collected from patent EP4682166A1.
